Values were extracted from patent US4316884A.

Experiment: plasma levels of indoprofen in mice after oral gavage (HPLC-UV)
Assay type: in vivo
Run parameters: mouse, plasma, oral suspension
Measure name: half-life

Molecule: CC(C(=O)O)c1ccc(N2Cc3ccccc3C2=O)cc1 (stereo not shown)
Measure name: half-life
Obs value: 5.4 h
